tested on: Vero cells; test: Cytotoxicity assay on Vero cells (microscopic morphology); type: cell-based; design: key: -: Safe concentration; + 1, +2, + 3, +4: about 25, 50, 75, 100% of cell sheet was affected respectively; + 1, +2, + 3, +4: about 25, 50, 75, 100% of cell sheet was affected respectively; + 1, +2, + 3, +4: about 25, 50, 75, 100% of cell sheet was affected respectively; + 1, +2, + 3, +4: about 25, 50, 75, 100% of cell sheet was affected respectively; M: masked (color of compounds made cells unseen); conditions: 100 µg/100µl, 24 h, morphological changes
endpoint: Cytotoxicity on Vero cells (cell sheet affected)

{"columns": ["molecule", "result"],
 "data": [
  ["COc1ccc(OC)c(C=C2/C(=N/Nc3nc(C)c(C(C)=O)s3)c3ccccc3/C2=N\\Nc2nc(C)c(C(C)=O)s2)c1 [11a]", "M"],
  ["CCOC(=O)c1sc(N/N=C2/C(=Cc3cc(OC)ccc3OC)/C(=N/Nc3nc(C)c(C(=O)OCC)s3)c3ccccc32)nc1C [11b]", "M"],
  ["COc1ccc(OC)c(C=C2/C(=N/Nc3nc(C)c(/N=N/c4ccc(C)cc4)s3)c3ccccc3/C2=N\\Nc2nc(C)c(/N=N/c3ccc(C)cc3)s2)c1 [7b]", "M"]
]}

---

# maps each entry to its melting point
endpoint: melting point

{"columns": ["molecule", "result"],
 "data": [
  ["COc1ccc(OC)c(C=C2/C(=N/Nc3nc(C)c(/N=N/c4ccc(C)cc4)s3)c3ccccc3/C2=N\\Nc2nc(C)c(/N=N/c3ccc(C)cc3)s2)c1 [7b]", "132 to 135 °C"],
  ["COc1ccc(OC)c(C=C2/C(=N/NC3=NC(=O)CS3)c3ccccc3/C2=N\\NC2=NC(=O)CS2)c1 [9a]", "130 to 132 °C"],
  ["COc1ccc(OC)c(C=C2/C(=N/Nc3nc(C)c(/N=N/c4ccc([N+](=O)[O-])cc4)s3)c3ccccc3/C2=N\\Nc2nc(C)c(/N=N/c3ccc([N+](=O)[O-])cc3)s2)c1 [7d]", "181 to 183 °C"],
  ["COc1ccc(OC)c(C=C2C(=NNC(N)=S)c3ccccc3C2=NNC(N)=S)c1 [compound 3]", "231 to 233 °C"],
  ["COc1ccc(OC)c(C=C2/C(=N/Nc3nc(-c4ccccc4)cs3)c3ccccc3/C2=N\\Nc2nc(-c3ccccc3)cs2)c1 [compound 13]", "193 to 195 °C"],
  ["COc1ccc(OC)c(C=C2/C(=N/NC3=NC(=O)C(C)S3)c3ccccc3/C2=N\\NC2=NC(=O)C(C)S2)c1 (stereo not drawn) [9b]", "198 to 200 °C"]
]}

---

test system: Vero cells; assay: Cytotoxicity assay on Vero cells (microscopic morphology); type: cell-based; design: key: -: Safe concentration; + 1, +2, + 3, +4: about 25, 50, 75, 100% of cell sheet was affected respectively; + 1, +2, + 3, +4: about 25, 50, 75, 100% of cell sheet was affected respectively; + 1, +2, + 3, +4: about 25, 50, 75, 100% of cell sheet was affected respectively; + 1, +2, + 3, +4: about 25, 50, 75, 100% of cell sheet was affected respectively; M: masked (color of compounds made cells unseen); settings: 90 µg/100µl, 24 h, morphological changes
endpoint: Cytotoxicity on Vero cells (cell sheet affected)

{"columns": ["compound", "result"],
 "data": [
  ["COc1ccc(OC)c(C=C2/C(=N/Nc3nc(C)c(/N=N/c4ccc([N+](=O)[O-])cc4)s3)c3ccccc3/C2=N\\Nc2nc(C)c(/N=N/c3ccc([N+](=O)[O-])cc3)s2)c1 [7d]", "-"],
  ["COc1ccc(OC)c(C=C2/C(=N/Nc3nc(C)c(/N=N/c4ccc(Cl)cc4)s3)c3ccccc3/C2=N\\Nc2nc(C)c(/N=N/c3ccc(Cl)cc3)s2)c1 [7c]", "M"],
  ["COc1ccc(OC)c(C=C2/C(=N/Nc3nc(-c4ccccc4)cs3)c3ccccc3/C2=N\\Nc2nc(-c3ccccc3)cs2)c1 [compound 13]", "-"],
  ["COc1ccc(OC)c(C=C2C(=NNC(N)=S)c3ccccc3C2=NNC(N)=S)c1 [compound 3]", "-"],
  ["CCOC(=O)c1sc(N/N=C2/C(=Cc3cc(OC)ccc3OC)/C(=N/Nc3nc(C)c(C(=O)OCC)s3)c3ccccc32)nc1C [11b]", "M"],
  ["COc1ccc(OC)c(C=C2/C(=N/Nc3nc(C)c(C(C)=O)s3)c3ccccc3/C2=N\\Nc2nc(C)c(C(C)=O)s2)c1 [11a]", "M"]
]}
